molecular target: EGFR (L858R, T790M) (Homo sapiens, UniProt P00533, L858R/T790M); construct: The EGFR constructs span amino acids R669 to V1011 of the EGFR protein; T7 phage display fusion (kinase-tagged T7 phage) or DNA tag for qPCR; made in house; host or cells: E. coli (BL21-derived) infected with T7 phage for most assays; remaining kinases in HEK-293; assay: In vitro kinase binding assay (phage/DNA-tagged kinase, affinity beads, qPCR), mutant EGFR; conditions: ratio of Kd EGFR (WT) to Kd EGFR (L858R, T790M)
Sequence (P00533 669-1011 T790M/L858R): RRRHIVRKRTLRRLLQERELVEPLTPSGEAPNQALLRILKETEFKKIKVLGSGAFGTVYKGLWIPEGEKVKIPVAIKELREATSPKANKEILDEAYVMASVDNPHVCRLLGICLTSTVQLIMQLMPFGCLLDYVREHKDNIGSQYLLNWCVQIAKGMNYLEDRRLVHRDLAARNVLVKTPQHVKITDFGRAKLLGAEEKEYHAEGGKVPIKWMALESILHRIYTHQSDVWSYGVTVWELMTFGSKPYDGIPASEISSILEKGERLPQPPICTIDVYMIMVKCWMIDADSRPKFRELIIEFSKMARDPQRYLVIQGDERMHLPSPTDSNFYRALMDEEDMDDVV
ASSAY READOUT: Binding Affinity ratio of WT/DM

These solved cases illustrate the format of a correct answer.
C=CC(=O)N[C@@H]1CN(c2nc(Nc3cn(CCCNC(=O)CN4CCN5CCN6CCN(CC4)CC(=O)[O][Lu]([O]C(=O)C5)[O]C(=O)C6)nc3OC)c3ncn(C)c3n2)C[C@H]1F : A (4 < A ≤ 25)
C=CC(=O)N[C@@H]1CN(c2nc(Nc3cn(CCCCCNC(=O)CN4CCN(CC(=O)O)CCN(CC(=O)O)CCN(CC(=O)O)CC4)nc3CC)c3ncn(C(C)(C)C)c3n2)C[C@H]1F : C (100 < C ≤ 1000)
C=CC(=O)N[C@@H]1CN(c2nc(Nc3cn(CCCCCCCNC(=O)CN4CCN(CC(=O)O)CCN(CC(=O)O)CCN(CC(=O)O)CC4)nc3OC)c3ncn(C)c3n2)C[C@H]1F : A (4 < A ≤ 25)
C=CC(=O)N1C[C@H](COc2nc(Nc3cnn(CCCCCNC(=O)CN4CCN5CCN6CCN(CC4)CC(=O)[O][Lu]([O]C(=O)C5)[O]C(=O)C6)c3)nc3[nH]cc(Cl)c23)[C@@H](OC)C1 : C (100 < C ≤ 1000)
C=CC(=O)N[C@@H]1CN(c2nc(Nc3cn(CCCCCNC(=O)CN4CCN5CCN6CCN(CC4)CC(=O)[O][Lu]([O]C(=O)C5)[O]C(=O)C6)nc3CC)c3ncn(C(C)(C)C)c3n2)C[C@H]1F : C (100 < C ≤ 1000)

API: the following record is the query input.
Query: Look up Binding Affinity ratio of WT/DM for this compound: `C=CC(=O)N[C@@H]1CN(c2nc(Nc3cn(CCCCCNC(=O)CN4CCN5CCN6CCN(CC4)CC(=O)[O][Lu]([O]C(=O)C5)[O]C(=O)C6)nc3OC)c3ncn(C)c3n2)C[C@H]1F`
Response: A (4 < A ≤ 25)
